biological target: T1, mesothelin (MSLN) (UniProt Q13421 296-580); assay: ELISA, MSLN coated on plate, IgG1-vcMMAE detected with anti-human IgG HRP
T1 construct: also called immobilized MSLN
T1 sequence (Q13421 other isoform, or with tags, fused parts or gaps limits assumed): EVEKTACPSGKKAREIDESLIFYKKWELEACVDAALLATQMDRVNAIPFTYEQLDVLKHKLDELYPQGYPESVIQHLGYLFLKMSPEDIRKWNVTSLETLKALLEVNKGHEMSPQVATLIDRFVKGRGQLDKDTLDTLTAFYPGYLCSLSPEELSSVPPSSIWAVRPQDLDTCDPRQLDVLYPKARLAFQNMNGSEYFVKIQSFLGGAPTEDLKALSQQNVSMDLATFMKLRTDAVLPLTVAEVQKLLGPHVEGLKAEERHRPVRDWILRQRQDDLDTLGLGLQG
propertyMeasured: EC50 (ng/mL)
Give the value in ng/mL but do not write ng/mL after it.

// query EC50 value for entry CHS5-vcMMAE (antibody, V domains shown, also called CHS5 IgG1-vcMMAE) VH: EVQLVESGGGLVQPGGSLRLSCAASGFTITDRTIHWVRQAPGKGLEWVASIFPTKGVTTYADSVKGRFTISADTSKNTAYLQMNSLRAEDTAVYYCARGRYWMDYWGQGTLVTVSS VL: DIQMTQSPSSLSASVGDRVTITCRASQDVKEGVAWYQQKPGKAPKLLIDQSHRLYSGVPSRFSGSGSGTDFTLTISSLQPEDFATYYCQQYYAWPSTFGQGTKVEIKR 9.56
